study_system: rat monoamine oxidase B (Rattus norvegicus, UniProt P19643)
Construct: from tissue
Sequence (P19643 whole entry): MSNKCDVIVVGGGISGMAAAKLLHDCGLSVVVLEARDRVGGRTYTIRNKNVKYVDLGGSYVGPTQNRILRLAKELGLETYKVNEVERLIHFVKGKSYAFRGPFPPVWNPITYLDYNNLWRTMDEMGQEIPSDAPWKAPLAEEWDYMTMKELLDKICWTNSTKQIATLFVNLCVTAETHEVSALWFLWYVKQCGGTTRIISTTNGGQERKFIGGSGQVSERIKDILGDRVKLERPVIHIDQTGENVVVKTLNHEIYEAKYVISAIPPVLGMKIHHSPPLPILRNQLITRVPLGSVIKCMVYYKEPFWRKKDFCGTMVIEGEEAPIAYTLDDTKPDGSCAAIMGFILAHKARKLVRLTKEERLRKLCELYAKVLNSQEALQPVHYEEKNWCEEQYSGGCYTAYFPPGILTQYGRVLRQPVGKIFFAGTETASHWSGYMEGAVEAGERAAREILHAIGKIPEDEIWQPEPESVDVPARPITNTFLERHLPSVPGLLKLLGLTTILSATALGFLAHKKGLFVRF
test_protocol: Inhibition of MAO-B (spectrofluorimetric method)
Type: biochemical
recorded_conditions: 10 μM compound
readout_name: MAO-B (%) @ 10μΜ

>>> result("Cc1cc(=O)oc2ccc(OCc3cc(Cn4cnc5c(N6CCOCC6)ncnc54)no3)cc12 [13b]")
"no"
>>> result("O=c1cc(OCC2CC(Cn3cnc4c(N5CCCCC5)ncnc43)=NO2)c2ccccc2o1 (stereo not drawn) [4f]")
"no"
>>> result("Cc1cc(=O)oc2cc(OCCC3CC(Cn4cnc5c(N6CCOCC6)ncnc54)=NO3)ccc12 (stereo not drawn) [4i]")
"no"
